These data points were gathered from patent US11512079B2.

# collection of MIC values tested on Cryptococcus neoformans H99

Below: 5 compounds and their reported MIC.
>>> print(df.to_string())
                            compound_string               assayed_target  endpoint         data_value
0  Nc1ncccc1-c1cc(Cc2ccc(OCc3ccnc(Cl)c3)cc2)no1  Cryptococcus neoformans H99       MIC  0.01 to 0.1 µg/mL
1  Nc1ncccc1-c1cc(Cc2ccc(CNc3nc(Cl)cs3)cc2)no1  Cryptococcus neoformans H99       MIC          > 1 µg/mL
2  Nc1ncccc1-c1cc(Cc2ccc(Cn3cc(F)cn3)cc2)no1  Cryptococcus neoformans H99       MIC     0.1 to 1 µg/mL
3  Nc1ncccc1-c1cc(Cc2ccc(Oc3ncc(F)cc3F)cc2)no1  Cryptococcus neoformans H99       MIC  0.01 to 0.1 µg/mL
4  Nc1ncccc1-c1cc(Cc2ccc(Cc3cccnc3F)cc2)no1  Cryptococcus neoformans H99       MIC  0.01 to 0.1 µg/mL

Note to self: MIC recorded for `Nc1ncccc1-c1cc(Cc2ccc(CNc3cccc(F)c3)cc2)no1` was 0.01 to 0.1 µg/mL

Note to self: MIC recorded for `Cc1cc(COc2ccc(Cc3cc(-c4cccnc4N)on3)cn2)no1` was 0.1 to 1 µg/mL

Note to self: MIC recorded for `CC(C)=CCOc1ccc(Cc2cc(-c3ccc(N)nc3N)on2)cc1` was 0.01 to 0.1 µg/mL

Note to self: MIC recorded for `COc1cc(COc2ccc(Cc3cc(-c4cccnc4N)on3)cn2)ccn1` was 0.01 to 0.1 µg/mL

Note to self: MIC recorded for `Nc1ncccc1-c1cc(Cc2ccc(COc3cc(F)ccc3F)cc2)no1` was 0.01 to 0.1 µg/mL

* * *

# Tested on: Aspergillus fumigatus MYA3626
# Assay details: In vitro antifungal assay (Example IX), microdilution broth, MEC
# Type: cell-based
# Experimental parameters: minimum effective concentration (shortening of hyphae), 35° C., 40-48 h, RPMI1640
Endpoint: minimal effective concentration

Below: 4 compounds and their reported minimal effective concentration.
                            compound_string         data_value
0  Cc1cc(COc2ccc(Cc3cc(-c4cccnc4N)on3)cn2)no1  0.01 to 0.1 µg/mL
1  N#Cc1ccc(COc2ccc(Cc3cc(-c4cccnc4N)on3)cn2)cc1     0.1 to 1 µg/mL
2  Cn1cc(COc2ccc(Cc3cc(-c4cccnc4N)on3)cn2)cn1          > 1 µg/mL
3  Nc1ncccc1-c1cc(Cc2ccc(OCc3ncccc3F)nc2)no1     0.1 to 1 µg/mL

Note to self: minimal effective concentration recorded for `Nc1ncccc1-c1cc(Cc2ccc(CNCC3CCOCC3)cc2)no1` was > 1 µg/mL

Note to self: minimal effective concentration recorded for `Nc1ncccc1-c1cc(Cc2ccc(OCCc3ccccc3)nc2)no1` was 0.1 to 1 µg/mL

* * *

# System: Rhizomucor pusillus 46342
# Assay details: In vitro antifungal assay (Example IX), microdilution broth, MEC
# Assay type: cell-based
# Experimental parameters: minimum effective concentration (shortening of hyphae), 35° C., 40-48 h, RPMI1640
Measured minimal effective concentration of individual entries

Below: 2 compounds and their reported minimal effective concentration.
In [3]: df
Out[3]:
                            compound_string      data_value
0  Nc1ncccc1-c1cc(Cc2ccc(Oc3ccc(F)cn3)cc2)no1  0.1 to 1 µg/mL
1  Nc1ncccc1-c1cc(Cc2ccc(Cn3cc4ccccc4n3)cc2)no1  0.1 to 1 µg/mL

Note to self: minimal effective concentration recorded for `Nc1ncccc1-c1cc(Cc2ccc(CCc3ccccc3)cc2)no1` was 0.1 to 1 µg/mL

Note to self: minimal effective concentration recorded for `Nc1ncccc1-c1cc(Cc2ccc(Oc3ccccc3F)nc2)no1` was 0.1 to 1 µg/mL

Note to self: minimal effective concentration recorded for `Nc1ncccc1-c1cc(Cc2ccc(COc3cc(F)ccc3F)cc2)no1` was > 1 µg/mL
